B1: library; numbered along this chain (parent)
chain: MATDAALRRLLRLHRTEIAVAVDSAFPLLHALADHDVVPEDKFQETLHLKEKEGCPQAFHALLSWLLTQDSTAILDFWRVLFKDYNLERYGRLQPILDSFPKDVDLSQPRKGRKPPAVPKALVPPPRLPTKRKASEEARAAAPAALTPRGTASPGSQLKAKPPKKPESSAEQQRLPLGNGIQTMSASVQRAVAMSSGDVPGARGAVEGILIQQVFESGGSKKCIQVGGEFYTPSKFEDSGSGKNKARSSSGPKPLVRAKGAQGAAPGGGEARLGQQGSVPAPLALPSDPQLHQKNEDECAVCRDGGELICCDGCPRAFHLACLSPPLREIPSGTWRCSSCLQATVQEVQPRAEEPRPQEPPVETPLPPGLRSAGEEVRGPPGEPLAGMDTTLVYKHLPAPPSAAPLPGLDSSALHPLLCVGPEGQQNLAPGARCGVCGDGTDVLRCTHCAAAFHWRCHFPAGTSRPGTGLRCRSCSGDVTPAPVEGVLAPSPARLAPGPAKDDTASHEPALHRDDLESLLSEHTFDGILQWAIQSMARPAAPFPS

# Variants of: B1
# procedure.details: AIRE transcriptional activation functional score (insulin promoter-GFP; nonsense median 0, synonymous median 1) (normalised score); higher = higher AIRE activity (more reporter activation)
# condition.details: with insulin promoter-GFP reporter in HEK293
measured.property: AIRE transcriptional activation functional score

mutation_id=N244S measured_value=1.3
mutation_id=V188M measured_value=1.32
mutation_id=S250L measured_value=1.02
mutation_id=E53M measured_value=0.544
mutation_id=A33T measured_value=0.426
mutation_id=L93W measured_value=0.0522
mutation_id=P407D measured_value=1.67
mutation_id=T16L measured_value=-0.113
mutation_id=E40P measured_value=0.61
mutation_id=C475W measured_value=-0.0091
mutation_id=A152S measured_value=0.715
mutation_id=P282F measured_value=0.638
mutation_id=P401R measured_value=1.15
mutation_id=S135H measured_value=1.48
mutation_id=P430D measured_value=0.951
mutation_id=A25T measured_value=0.533
mutation_id=G268L measured_value=1.05
mutation_id=W335Q measured_value=1.19
mutation_id=E307R measured_value=1.28
mutation_id=H512M measured_value=0.439
mutation_id=A500E measured_value=0.98
mutation_id=V443K measured_value=0.0676
mutation_id=A61I measured_value=-0.471
mutation_id=S135G measured_value=-0.37
mutation_id=R456F measured_value=-0.0642
mutation_id=P119H measured_value=1.17
mutation_id=F82R measured_value=0.341
mutation_id=L406S measured_value=0.856
mutation_id=S135R measured_value=0.761
mutation_id=P101G measured_value=0.302
mutation_id=A281G measured_value=1.5
mutation_id=S64V measured_value=-0.0585
mutation_id=Y90P measured_value=0.0423
mutation_id=G269R measured_value=1.13
mutation_id=K395D measured_value=0.353
mutation_id=P286M measured_value=1.36
mutation_id=S332E measured_value=0.387
mutation_id=S372I measured_value=0.653
mutation_id=G462W measured_value=0.899
mutation_id=E171V measured_value=1.65
mutation_id=A186D measured_value=1.11
mutation_id=S521L measured_value=0.969
mutation_id=T441G measured_value=0.478
mutation_id=V118P measured_value=1.47
mutation_id=V20S measured_value=-0.474
mutation_id=H35V measured_value=0.15
mutation_id=E17W measured_value=-0.29
mutation_id=E270V measured_value=1.36
mutation_id=D478W measured_value=0.544
mutation_id=G91P measured_value=0.488
mutation_id=G208D measured_value=0.296
mutation_id=V420S measured_value=1.07
mutation_id=T72V measured_value=1.28
mutation_id=L158V measured_value=0.815
mutation_id=P148I measured_value=1.49
mutation_id=P252T measured_value=0.961
mutation_id=A432Y measured_value=1.28
mutation_id=Q44A measured_value=0.712
mutation_id=L146C measured_value=0.639
mutation_id=S535F measured_value=0.394
mutation_id=A246V measured_value=1.12
mutation_id=T147R measured_value=1.03
mutation_id=E237S measured_value=0.791
mutation_id=L283A measured_value=1.02
mutation_id=Q157F measured_value=1.5
mutation_id=A429Q measured_value=1.32
mutation_id=S185I measured_value=0.353
mutation_id=L177S measured_value=0.553
mutation_id=P492V measured_value=1.07
mutation_id=L93C measured_value=-0.0574
mutation_id=I309F measured_value=1.18
mutation_id=D41P measured_value=0.148
mutation_id=L519V measured_value=0.315
mutation_id=A496L measured_value=1.15
mutation_id=G242E measured_value=0.0818
mutation_id=E298R measured_value=0.634
mutation_id=L385Q measured_value=1.24
mutation_id=L519C measured_value=0.313
mutation_id=A144G measured_value=1.31
